# Tested on: DBTRG-05MG
# assay.procedure: Cytotoxicity against human DBTRG-05MG cells assessed as reduction in cell viability after 72 hrs by MTT assay
# Format: functional, cell-based
pIC50: −log10 of the molar value.
endpoint.name: pIC50

1. Cn1nnc2c(C(N)=O)ncn2c1=O [TEMOZOLOMIDE] :: 3.92
2. C[C@@H]1CC[C@H]2C(C)(C)[C@H]3C[C@@]12CC[C@@]3(C)O :: 3.97

Source: ChEMBL document CHEMBL4699511
